target: PARP7 (Homo sapiens (Human), UniProt Q7Z3E1); assay: Enzymatic assay for inhibition of PARP7: TR-FRET displacement of biotinylated Probe A from the TIPARP active site; details: Table A-1
Sequence (Q7Z3E1 whole entry): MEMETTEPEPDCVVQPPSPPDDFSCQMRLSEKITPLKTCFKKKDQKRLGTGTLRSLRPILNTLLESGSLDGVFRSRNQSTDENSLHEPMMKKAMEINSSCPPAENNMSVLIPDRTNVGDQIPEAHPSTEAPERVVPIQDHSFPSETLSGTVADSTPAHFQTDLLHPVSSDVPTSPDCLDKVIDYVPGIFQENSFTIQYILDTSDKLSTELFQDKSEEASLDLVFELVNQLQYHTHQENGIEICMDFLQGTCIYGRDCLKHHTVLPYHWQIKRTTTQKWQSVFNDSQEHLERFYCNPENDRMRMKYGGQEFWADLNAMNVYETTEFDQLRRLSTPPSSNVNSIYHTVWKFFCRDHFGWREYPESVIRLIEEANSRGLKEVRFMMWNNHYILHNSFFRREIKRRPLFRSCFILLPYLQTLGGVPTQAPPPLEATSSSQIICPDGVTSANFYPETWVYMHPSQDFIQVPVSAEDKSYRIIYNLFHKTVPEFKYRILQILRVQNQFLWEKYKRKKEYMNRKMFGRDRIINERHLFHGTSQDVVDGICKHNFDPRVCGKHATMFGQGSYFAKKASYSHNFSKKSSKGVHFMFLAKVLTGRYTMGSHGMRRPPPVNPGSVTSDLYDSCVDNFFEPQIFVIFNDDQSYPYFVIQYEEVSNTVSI
pIC50: −log10 of the molar value.
Experimental endpoint: pIC50

Some molecules with recorded pIC50:
N#Cc1ccc(N2CCN(C(=O)c3ccnc(OC[C@H]4c5ccccc5CN4c4cn[nH]c(=O)c4C(F)(F)F)n3)CC2)nc1 [Example 38 Isomer B]: > 7.00
N#Cc1ccc(N2CCN(C(=O)CCOCCOc3cn[nH]c(=O)c3C(F)(F)F)CC2)nc1: > 7.00
O=c1[nH]ncc(N2Cc3cccc(OCC4CCOC4)c3C2)c1C(F)(F)F (stereo not drawn): > 7.00
C[C@@H](COCCC(=O)N1CCN(c2ncc(C(F)(F)F)s2)CC1)Oc1cn[nH]c(=O)c1Cl: 6.00 to 7.00
C[C@@H](COCCC(=O)N1CCN(c2ccc(C#N)cn2)CC1)Sc1cn[nH]c(=O)c1C(F)(F)F: > 7.00

Checklist item: pIC50 tested on PARP7 (Homo sapiens (Human), UniProt Q7Z3E1), entry O=c1[nH]ncc(N2Cc3cc(F)c(OCC4CCCN4)cc3C2)c1C(F)(F)F (stereo not drawn) , value?
> 7.00

Lookup CC[C@@H](COCCC(=O)N1CCN(c2ncc(Cl)cn2)CC1)Oc1cn[nH]c(=O)c1C(F)(F)F (single isomer, unassigned) [Example 591 Isomer A]
> 7.00

Further, for N#Cc1ccc(N2CCN(C(=O)CCOC[C@@H]3c4ccccc4CN3c3cn[nH]c(=O)c3Cl)CC2)nc1 ?
> 7.00

Moving on to CC(=O)N1CCC(Oc2cc3c(cn2)CN(c2cn[nH]c(=O)c2C(F)(F)F)C3)CC1
> 7.00

Field entry: CN1CCC(Oc2cccc3c2CN(c2cn[nH]c(=O)c2Cl)C3)C1 (stereo not drawn)
≤ 6.00

# repeat for C=CC(=O)Nc1cccc(OC[C@@H]2CCCN2c2cn[nH]c(=O)c2C(F)(F)F)c1
6.00 to 7.00

Then this molecule: CN(C)CCOc1ccc2c(n1)CN(c1cn[nH]c(=O)c1C(F)(F)F)C2
6.00 to 7.00

Can you check N#Cc1ccc(N2CCN(C(=O)C#CCOC[C@@H]3CCCN3c3cn[nH]c(=O)c3C(F)(F)F)CC2)nc1 next?
> 7.00

Now this one: N#Cc1ccc(N2CCN(C(=O)CCNCCOc3cccc4c3CN(c3cn[nH]c(=O)c3C(F)(F)F)C4)CC2)nc1
> 7.00

Repeat with C[C@@H]1CN(c2ccc(C#N)cn2)CCN1C(=O)CCOC[C@@H]1CCCN1c1cn[nH]c(=O)c1C(F)(F)F [Example 100A]
> 7.00

Taken from patent US10550105B2.
